I'd be grateful if you could share measured inhibition at 10 µM for these entries.
target.of.assay: bradykinin 1 receptor (B1R) of the rat (Rattus norvegicus, UniProt P97583)
Construct: expressed in transfected cells
Sequence (P97583 whole entry): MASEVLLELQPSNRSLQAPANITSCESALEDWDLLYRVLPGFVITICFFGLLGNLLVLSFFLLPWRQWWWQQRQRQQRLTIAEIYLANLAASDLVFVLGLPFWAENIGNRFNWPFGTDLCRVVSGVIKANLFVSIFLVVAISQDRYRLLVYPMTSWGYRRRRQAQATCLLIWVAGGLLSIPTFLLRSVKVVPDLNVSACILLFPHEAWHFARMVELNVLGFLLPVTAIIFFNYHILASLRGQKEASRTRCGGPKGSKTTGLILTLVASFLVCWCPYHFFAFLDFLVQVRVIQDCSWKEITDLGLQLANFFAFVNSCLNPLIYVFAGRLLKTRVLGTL
protocol.description: FLIPR Ca2+ assay, B1R antagonism, rat
Format: cell-based
reported.conditions: CHO-K1, 10 μM test substance; CHO K1 cells with rat B1R gene (rB1R cells); Des-Arg9-bradykinin at EC80; % inhibition compared with the maximum achievable inhibition; read-out: B1R antagonism, rat [10 μM] % inhibition
Remember to put the unit after the number in your answer.

- molecule: "O=C(CCCC1CCCCN1S(=O)(=O)c1cccc2ccccc12)N1CCC(OCCN2CCCC2)(c2ccncc2)CC1 (stereo not drawn)"
  inhibition at 10 µM: "59%"
- molecule: "O=C(CC(NS(=O)(=O)c1ccc2ccccc2c1)c1ccccc1)N1CCC(OCCCN2CCCC2)(c2cccnc2)CC1 (stereo not drawn)"
  inhibition at 10 µM: "102%"

Consider the following items and state reported inhibition at 10 µM for each.
1. Cc1cc(S(=O)(=O)N2CCCCC2CCC(=O)N2CCC(OCCN3CCN(C)CC3)(c3cccnc3)CC2)c(C)cc1Cl (stereo not drawn)
2. CS(=O)(=O)N(CCOCC(=O)N1CCC(OCCN2CCCC2)(c2cccnc2)CC1)C(c1ccccc1)c1ccccc1
3. COc1cc(C)c(S(=O)(=O)N2CCCCC2CCOCC(=O)N2CCC(OCCN3CCCC3)(c3cccc(F)c3)CC2)c(C)c1 (stereo not drawn)
4. O=C(CC1CCCCN1S(=O)(=O)c1cccc(C(F)(F)F)c1)N1CCC(OCCN2CCCC2)(c2cccnc2)CC1 (stereo not drawn)

Reply text:
["61%", "100%", "99%", "102%"]

Consider the following items and state reported inhibition at 10 µM for each.
1. Cc1cccc(Cl)c1S(=O)(=O)N(CCOCC(=O)N1CCC(OCCN2CCCC2)(c2ccc(F)cc2)CC1)C1CC1
2. COc1cc(C)c(S(=O)(=O)N2CCCCC2CCCC(=O)N2CCC(OCCN3CCCC3)(c3cccc(F)c3)CC2)c(C)c1 (stereo not drawn)
3. Cc1cccc(Cl)c1S(=O)(=O)N(CCOCC(=O)N1CCC(OCC[N+]2([O-])CCCC2)(c2cccc(F)c2)CC1)C1CC1
4. Cc1cccc(Cl)c1S(=O)(=O)N1CCCCC1CCCC(=O)N1CCC(OCCN2CCCC2)(c2cccc(F)c2)CC1 (stereo not drawn)

Reply text:
1. 98%
2. 99%
3. 102%
4. 98%

Consider the following items and state reported inhibition at 10 µM for each.
1. COc1cc(C)c(S(=O)(=O)N2CCCCC2COCCC(=O)N2CCC(OCCN3CCCC3)(c3cccnc3)CC2)c(C)c1 (stereo not drawn)
2. COc1cc(C)c(S(=O)(=O)N(CCOCC(=O)N2CCC(OCCN3CCCC3)(c3cccnc3)CC2)Cc2cccnc2)c(C)c1

Reply text:
1: 102%; 2: 102%

---

I'd be grateful if you could share measured B1R antagonism, rat [10 μM] % inhibition for these entries.
target.of.assay: bradykinin 1 receptor (B1R) of the rat (Rattus norvegicus)
Construct: expressed in transfected cells
protocol.description: FLIPR Ca2+ assay, B1R antagonism, rat
Format: cell-based
reported.conditions: 10 μM test substance; CHO K1 cells with rat B1R gene (rB1R cells); Des-Arg9-bradykinin at EC80; % inhibition compared with the maximum achievable inhibition; 10 µM
Remember to put the unit after the number in your answer.

Reference set (3 entries):
- molecule: "COc1cc(C)c(S(=O)(=O)N2CCCCC2CCOCC(=O)N2CCC(OCCN3CCCC3)(c3cccnc3)CC2)c(C)c1 (stereo not shown)"
  endpoint.value: "98%"
- molecule: "O=C(COCC1CCc2ccccc2N1S(=O)(=O)c1ccc2ccccc2c1)N1CCC(OCCN2CCCC2)(c2cccnc2)CC1 (stereo not shown)"
  endpoint.value: "83%"
- molecule: "COc1cc(C)c(S(=O)(=O)N2CCCCC2CCCC(=O)N2CCC(OCCN3CCCC3)(c3ccncc3)CC2)c(C)c1 (stereo not shown)"
  endpoint.value: "103%"

Consider the following items and state reported B1R antagonism, rat [10 μM] % inhibition for each.
1. COc1cc(C)c(S(=O)(=O)N2CCCCC2COCCC(=O)N2CCC(OCCN3CCCC3)(c3cccc(F)c3)CC2)c(C)c1 (stereo not shown)
2. COc1cc(C)c(S(=O)(=O)N(C)CCOCC(=O)N2CCC(OCCN3CCCC3)(c3cccnc3)CC2)c(C)c1
3. COc1cc(C)c(S(=O)(=O)N2CCCCC2CCOCC(=O)N2CCC(OCCN3CCCC3)(c3cccc(F)c3)CC2)c(C)c1 (stereo not shown)
4. O=C(COCC1CCCCN1S(=O)(=O)c1ccccc1C(F)(F)F)N1CCC(OCCN2CCCC2)(c2cccnc2)CC1 (stereo not shown)

Reply text:
1: 100%; 2: 102%; 3: 98%; 4: 103%
